Molecular target: C3b (Homo sapiens)
Construct: Biotinylated C3b was captured site-specifically on a streptavidin chip
Test: SPR kinetic analysis of binding to immobilized C3b (Biacore, single cycle kinetics)
Settings: Table 1, N-terminal analogs; read-out: kd: dissociation rate
Bridge positions count the residues as written; N and C are the ends. Square brackets hold non-standard residues; d marks the D form. Peptide text beside a SMILES is read from it. Trp(1-Me) = Cn1cc(C[C@H](N)C(=O)O)c2ccccc21; NMeI = CC[C@H](C)[C@H](NC)C(=O)O; Sar = CNCC(=O)O

# Molecule, Unit Descriptor, koff
rows = [
    ("CC[C@H](C)[C@H](NC)C(=O)N[C@H](C(=O)N[C@H]1CSSC[C@@H](C(=O)N(C)[C@H](C(N)=O)[C@@H](C)CC)NC(=O)[C@H](CCCNC(=N)N)NC(=O)[C@H](Cc2c[nH]cn2)NC(=O)[C@H](C)NC(=O)CN(C)C(=O)[C@H](Cc2c[nH]c3ccccc23)NC(=O)[C@H](CC(=O)O)NC(=O)[C@H](CCC(N)=O)NC(=O)[C@H](Cc2cn(C)c3ccccc23)NC(=O)[C@H](C(C)C)NC1=O)[C@@H](C)CC", "s⁻¹", 0.0037),
    ("CC[C@H](C)[C@H](NC(=O)[C@@H](N)CCCNC(=N)N)C(=O)N[C@H]1CSSC[C@@H](C(=O)N(C)[C@H](C(N)=O)[C@@H](C)CC)NC(=O)[C@H](CCCNC(=N)N)NC(=O)[C@H](Cc2c[nH]cn2)NC(=O)[C@H](C)NC(=O)CN(C)C(=O)[C@H](Cc2c[nH]c3ccccc23)NC(=O)[C@H](CC(=O)O)NC(=O)[C@H](CCC(N)=O)NC(=O)[C@H](Cc2cn(C)c3ccccc23)NC(=O)[C@H](C(C)C)NC1=O [compound 6] (H-RICV[Trp(1-Me)]QDW[Sar]AHRC[NMeI]-NH2; disulfide 3-13)", "s⁻¹", 0.0029),
]

###

Reported values of ka: association rate for individual entries
Target: C3b (Homo sapiens, UniProt P01024)
Construct: Biotinylated C3b was captured site-specifically on a streptavidin chip
Sequence (P01024 23-667 limits assumed): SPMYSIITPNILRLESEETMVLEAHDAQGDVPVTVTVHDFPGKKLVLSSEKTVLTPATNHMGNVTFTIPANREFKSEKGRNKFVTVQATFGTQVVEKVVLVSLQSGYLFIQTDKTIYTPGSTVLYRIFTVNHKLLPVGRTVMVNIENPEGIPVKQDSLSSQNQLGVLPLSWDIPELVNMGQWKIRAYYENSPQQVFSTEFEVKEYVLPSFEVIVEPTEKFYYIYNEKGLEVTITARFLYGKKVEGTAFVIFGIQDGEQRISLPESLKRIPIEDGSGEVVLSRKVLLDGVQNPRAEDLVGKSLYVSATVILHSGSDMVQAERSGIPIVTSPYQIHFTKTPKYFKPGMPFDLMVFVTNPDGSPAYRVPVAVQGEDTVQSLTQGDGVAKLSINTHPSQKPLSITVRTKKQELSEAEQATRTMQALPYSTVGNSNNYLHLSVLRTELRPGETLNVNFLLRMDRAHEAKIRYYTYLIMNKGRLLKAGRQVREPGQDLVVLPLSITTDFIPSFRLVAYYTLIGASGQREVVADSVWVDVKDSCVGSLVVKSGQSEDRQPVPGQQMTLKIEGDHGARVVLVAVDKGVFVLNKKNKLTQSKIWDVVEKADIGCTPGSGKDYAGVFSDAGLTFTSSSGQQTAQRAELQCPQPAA
Sequence (P01024 749-1663 partner limits assumed): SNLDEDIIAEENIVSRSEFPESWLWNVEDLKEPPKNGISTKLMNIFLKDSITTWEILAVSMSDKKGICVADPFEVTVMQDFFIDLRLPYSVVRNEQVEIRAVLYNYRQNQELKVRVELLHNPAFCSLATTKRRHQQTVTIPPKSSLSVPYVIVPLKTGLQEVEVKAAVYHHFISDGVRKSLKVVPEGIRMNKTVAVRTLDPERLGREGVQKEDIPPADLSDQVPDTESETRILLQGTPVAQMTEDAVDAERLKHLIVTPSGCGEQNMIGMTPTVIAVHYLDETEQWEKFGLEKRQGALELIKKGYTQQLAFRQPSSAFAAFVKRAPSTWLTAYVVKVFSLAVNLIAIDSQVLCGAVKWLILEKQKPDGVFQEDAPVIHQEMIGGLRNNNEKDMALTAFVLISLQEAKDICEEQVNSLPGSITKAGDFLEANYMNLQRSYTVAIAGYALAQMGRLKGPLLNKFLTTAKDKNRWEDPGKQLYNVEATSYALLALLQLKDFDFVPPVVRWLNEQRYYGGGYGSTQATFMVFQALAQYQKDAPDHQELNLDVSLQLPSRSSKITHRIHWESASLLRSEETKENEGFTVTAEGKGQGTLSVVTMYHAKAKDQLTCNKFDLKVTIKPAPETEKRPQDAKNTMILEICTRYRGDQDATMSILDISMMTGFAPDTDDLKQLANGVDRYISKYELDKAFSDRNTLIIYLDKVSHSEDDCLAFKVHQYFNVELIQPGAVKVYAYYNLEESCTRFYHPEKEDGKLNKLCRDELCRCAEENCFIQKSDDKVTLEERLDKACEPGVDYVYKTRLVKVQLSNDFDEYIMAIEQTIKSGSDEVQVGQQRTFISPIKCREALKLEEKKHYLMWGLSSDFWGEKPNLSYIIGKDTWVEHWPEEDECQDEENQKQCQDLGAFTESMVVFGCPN
Assay: SPR kinetic analysis of binding to immobilized C3b (Biacore, single cycle kinetics)
Settings: Table 1, N-terminal analogs
Assay Metric: ka: association rate

# Compound Smiles, System Name, Test Result
rows = [
    ("CC[C@H](C)[C@H](NC(=O)[C@H](Cc1ccccc1)NC)C(=O)N[C@H]1CSSC[C@@H](C(=O)N(C)[C@H](C(N)=O)[C@@H](C)CC)NC(=O)[C@H](CCCNC(=N)N)NC(=O)[C@H](Cc2c[nH]cn2)NC(=O)[C@H](C)NC(=O)CN(C)C(=O)[C@H](Cc2c[nH]c3ccccc23)NC(=O)[C@H](CC(=O)O)NC(=O)[C@H](CCC(N)=O)NC(=O)[C@H](Cc2cn(C)c3ccccc23)NC(=O)[C@H](C(C)C)NC1=O", "C3b (Homo sapiens, UniProt P01024)", "1.6 ± 0.2 10^6/Ms"),
    ("CC[C@H](C)[C@H](NC(=O)[C@H](N)Cc1ccccc1)C(=O)N[C@H]1CSSC[C@@H](C(=O)N(C)[C@H](C(N)=O)[C@@H](C)CC)NC(=O)[C@H](CCCNC(=N)N)NC(=O)[C@H](Cc2c[nH]cn2)NC(=O)[C@H](C)NC(=O)CN(C)C(=O)[C@H](Cc2c[nH]c3ccccc23)NC(=O)[C@H](CC(=O)O)NC(=O)[C@H](CCC(N)=O)NC(=O)[C@H](Cc2cn(C)c3ccccc23)NC(=O)[C@H](C(C)C)NC1=O", "C3b (Homo sapiens, UniProt P01024)", "2.3 ± 0.3 10^6/Ms"),
    ("CC[C@H](C)[C@H](NC(=O)[C@@H](N)Cc1ccc(OC)cc1)C(=O)N[C@H]1CSSC[C@@H](C(=O)N(C)[C@H](C(N)=O)[C@@H](C)CC)NC(=O)[C@H](CCCNC(=N)N)NC(=O)[C@H](Cc2c[nH]cn2)NC(=O)[C@H](C)NC(=O)CN(C)C(=O)[C@H](Cc2c[nH]c3ccccc23)NC(=O)[C@H](CC(=O)O)NC(=O)[C@H](CCC(N)=O)NC(=O)[C@H](Cc2cn(C)c3ccccc23)NC(=O)[C@H](C(C)C)NC1=O", "C3b (Homo sapiens, UniProt P01024)", "2.3 ± 0.4 10^6/Ms"),
]
